Test system: NCI-H226
Experiment: Cytotoxicity against human NCI-H226 cells after 48 hrs by sulforhodamine B assay
Assay type: functional, cell-based
Conditions: NCI-H226, 48 h
quantity_name: IC50
Returns: string containing the numeric result and its unit.

Ask | Which measured IC50 value corresponds to COc1ccc(-c2cc(C(=O)N/N=C(\C)c3ccc(OC)c(OC)c3)[nH]n2)cc1 ?
Reply | 300 nM

====

Biological target: UniProt Q9NYA1
Sequence (Q9NYA1 whole entry): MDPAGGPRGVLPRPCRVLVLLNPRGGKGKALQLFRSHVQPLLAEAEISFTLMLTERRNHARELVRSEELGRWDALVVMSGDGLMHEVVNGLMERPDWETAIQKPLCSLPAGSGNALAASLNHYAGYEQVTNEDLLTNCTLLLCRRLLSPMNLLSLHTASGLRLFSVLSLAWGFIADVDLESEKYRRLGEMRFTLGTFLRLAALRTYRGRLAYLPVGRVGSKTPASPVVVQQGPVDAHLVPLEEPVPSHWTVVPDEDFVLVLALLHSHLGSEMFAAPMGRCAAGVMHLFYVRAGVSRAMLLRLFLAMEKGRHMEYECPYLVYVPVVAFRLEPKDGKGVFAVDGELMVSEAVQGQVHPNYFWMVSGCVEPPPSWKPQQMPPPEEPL
Assay: Inhibition of His6x-tagged recombinant sphingosine kinase 1 expressed in HEK293 cells at 10.7 uM
Type: cell-based
Outcome label depends on inhibition relative to 30%: at/above gives t, below gives f.

| structure_smiles_string | test_system | class_label |
| --- | --- | --- |
| COc1ccc(-c2cc(C(=O)N/N=C/c3ccc(C(C)C)cc3)[nH]n2)cc1 | UniProt Q9NYA1 | f |

Ask | Reported inhibition reaches at least 30% for Cc1ccc(-c2cc(C(=O)N/N=C/c3ccccc3O)[nH]n2)cc1 ?
Reply | f

Ask | Reported inhibition reaches at least 30% for COc1ccc(-c2cc(C(=O)N/N=C/c3ccc(F)cc3)[nH]n2)cc1 ?
Reply | f

Ask | Reported inhibition reaches at least 30% for COc1ccc(/C(C)=N/NC(=O)c2cc(-c3ccc(C)cc3)n[nH]2)cc1OC ?
Reply | f

Ask | Reported inhibition reaches at least 30% for COc1ccc(-c2cc(C(=O)N/N=C(\C)c3ccc(OC)c(OC)c3)[nH]n2)cc1 ?
Reply | t

Ask | Reported inhibition reaches at least 30% for COc1ccc(-c2cc(C(=O)N/N=C/c3ccc(OC)c(OC)c3)[nH]n2)cc1 ?
Reply | t

Ask | Reported inhibition reaches at least 30% for O=C(N/N=C/c1ccccc1O)c1cc(-c2ccccc2)n[nH]1 ?
Reply | f
